tested on: Saccharomyces cerevisiae; assay: protein stability index of tFT-peptide fusion (C-terminal peptide) (PSI (0-1 scale)); higher = more stable (slower turnover); details: genetic background: wild type; temperature: 37 C;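 note: PSI is a weighted mean of sequencing reads over stability bins, variants kept only with over 10 reads, mCherry proximal and sfGFP distal, peptide attached via GGGS linker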
Class (by protein stability index) -- bucket 1: < 0.2; bucket 2: ≥ 0.2 and < 0.5; bucket 3: ≥ 0.5

Please report the category associated with WSISFGLLVCWV , nothing else.
bucket 2

Please report the category associated with EFWWPFDRRGVI , nothing else.
bucket 3

Please report the category associated with CSYPTLSMYSTT , nothing else.
bucket 3

Please report the category associated with PPTRVPVTLFLV , nothing else.
bucket 1

Please report the category associated with GRLDHWNKHKYI , nothing else.
bucket 1

Please report the category associated with FFVRSWWVELLF , nothing else.
bucket 3

Please report the category associated with SSVLWVMFVFFY , nothing else.
bucket 2

Please report the category associated with FGPRLLRVMRLL , nothing else.
bucket 2

Please report the category associated with VDSTCLLITLLA , nothing else.
bucket 2
